- Assay Summary: in vitro
- Assay type: cell-based
- Condition Parameters: human, HepG2 hepatocellular carcinoma cells
Numbered stars: 1 amine (or outer) side, 2 acyl side, 3 side chain; on linkers, the order of the positions; unused ones are H or OH. Square brackets hold non-standard residues; d marks the D form. Peptide text beside a SMILES is read from it. * marks the point of attachment. N(1S-cyclohexylethyl)Gly = C[C@H](NCC(=O)O)C1CCCCC1; N(tridecyl)Gly = CCCCCCCCCCCCCNCC(=O)O; N(4-MeOBn)Gly = COc1ccc(CNCC(=O)O)cc1; X1 = CC(c1ccccc1)N(CC(=O)[*:2])[*:1]; Myristoyl = CCCCCCCCCCCCCC(=O)*; NFurfurylGly = O=C(O)CNCc1ccco1; Gly(N(CH2)3NH2) = NCCCNCC(=O)O; Nphe = O=C(O)CNCc1ccccc1; NPrGly = CCCNCC(=O)O; Nlys = NCCCCNCC(=O)O
Observable: CC50 at 72 h (µg/mL)
Numbers only; they are read as µg/mL.

See these solved cases before continuing.
CCCCCCCCCCCCCC(=O)NCC(=O)N(CCC)CC(=O)N(CC(=O)N(CCCCN)CC(=O)N(CC(=O)N(CC(=O)N(CCCN)CC(N)=O)Cc1ccc(OC)cc1)Cc1ccco1)C(C)c1ccccc1 (stereo not drawn) [Compound 911-M16] (Myristoyl-G[NPrGly][X1][Nlys][NFurfurylGly][N(4-MeOBn)Gly][Gly(N(CH2)3NH2)]-NH2)	136
CCCCCCCCCCCCCNCC(=O)N(CCC)CC(=O)N(CC(=O)N(CCCCN)CC(=O)N(CC(=O)N(CC(=O)N(CCCN)CC(N)=O)Cc1ccccc1)Cc1ccco1)[C@@H](C)C1CCCCC1 [Compound 911-M11] (H-[N(tridecyl)Gly][NPrGly][N(1S-cyclohexylethyl)Gly][Nlys][NFurfurylGly][Nphe][Gly(N(CH2)3NH2)]-NH2)	82.5

Asked: Fill in the blank: the reported CC50 at 72 h of CCCCCCCCCCCCCNCC(=O)N(CCC)CC(=O)N(CC(=O)N(CCCCN)CC(=O)N(CC(=O)N(CC(=O)N(CCCN)CC(N)=O)Cc1ccccc1)Cc1ccco1)Cc1ccco1 [Compound 911-M7] (H-[N(tridecyl)Gly][NPrGly][NFurfurylGly][Nlys][NFurfurylGly][Nphe][Gly(N(CH2)3NH2)]-NH2) is ____.
Given back: 187
